- Test system: NCI/ADR-RES ovarian
- TEST_SUMMARY: NCI-60 one-dose screen, 48 h (100 = growth as untreated, 0 = no growth, -100 = all killed)
- EXPERIMENTAL_CONDITIONS: 10 µM unless noted
Compounds without any hit were thinned out: in the full panel of roughly 83,000, 20% have a hit.
Just a reminder that ties go to condition not met: only growth strictly below 30% counts as condition met.

The following compounds have reported results that may help.
>  <COMPOUND>
COc1cc(-c2cc(-c3ccc(Nc4ncnc5cc(Cl)ccc45)cc3)nc(N3CCCCC3)n2)cc(OC)c1OC

>  <TARGET_DESC>
NCI/ADR-RES ovarian

>  <CLASS_ASSIGNMENT>
condition not met

$$$$
>  <COMPOUND>
CC1Cc2c(Cl)ncnc2N(C)c2ccc(Cl)cc21 (stereo not given)

>  <TARGET_DESC>
NCI/ADR-RES ovarian

>  <CLASS_ASSIGNMENT>
condition met

$$$$
>  <COMPOUND>
N#Cc1ccc(-c2ccc(COc3ccc(CC4SC(=O)NC4=O)cc3)cc2)cc1 (stereo not given)

>  <TARGET_DESC>
NCI/ADR-RES ovarian

>  <CLASS_ASSIGNMENT>
condition not met

$$$$

Next:
Input line: Please indicate whether the reported growth of `O=S(=O)(NCCNc1nccc(-c2c(-c3cccc(F)c3)nc3occn23)n1)c1ccc(C(F)(F)F)cc1` is strictly below 30%.
Output line: condition not met
